# residual activity annotations
target: PRKACG (human); test: radiometric filter-binding kinase assay, Kinase HotSpot; conditions: compound 0.5 µM; ATP 10 µM
// return numeric value only (unit: %, not printed)

System PRKACG (human). Read-out residual activity. Item `FC(F)(F)c1ccc(/C=C/c2nc(COc3ccc(CCCCn4ccnn4)cc3)co2)cc1` . Report value.
105

Give measured residual activity for `Cn1cc(/C=C2\C(=O)Nc3ccc(S(N)(=O)=O)cc32)c2ccccc21` (PRKACG (human)).
101

Quote residual activity with test system PRKACG (human) for `COc1cc2c(cc1OC)-c1[nH]nc(Nc3cccc(F)c3)c1C2`
102

Under PRKACG (human): report residual activity of `O=C(O)c1ccc2c3c1cccc3c(=O)n1c3ccccc3nc21` .
127

Provide residual activity, system PRKACG (human), entry `CCc1nc(-c2ccc(OC)cc2)[nH]c1-c1ccncc1`
103

Next:
System PRKACG (human). Read-out residual activity. Item `COc1cccc(-c2cc(=O)c3ccccc3o2)c1N` . Report value.
96

Using PRKACG (human) as the test system, report measured residual activity of `N#Cc1c(NC(=O)c2cccc3ccccc23)sc2c1CCCC2` .
111

State recorded residual activity with PRKACG (human), entry `O=C1NC(=O)c2cc(Nc3ccc(F)cc3)c(Nc3ccc(F)cc3)cc21` , no comment.
101

// output residual activity; input `O=c1c(-c2ccc(F)cc2)c(-c2ccncc2)[nH]n1-c1ccc(Cl)cc1` ; system PRKACG (human)
91.9

Enter residual activity (test system PRKACG (human)) for `COc1cc2c(Nc3ccc(Br)cc3F)ncnc2cc1OCC1CCN(C)CC1`
106

State residual activity (PRKACG (human)) of `COc1cc2c(N3CCN(C(=O)Nc4ccc(OC(C)C)cc4)CC3)ncnc2cc1OCCCN1CCCCC1` .
108

Provide PRKACG (human) residual activity reading for `N#C/C(=C1/Nc2ccccc2S1)c1ccnc(NCCc2cccnc2)n1` .
101

====

molecular target: MUSK (human) (UniProt O15146); experiment: radiometric filter-binding kinase assay, Kinase HotSpot; settings: compound 0.5 µM; ATP 10 µM
Sequence (O15146 whole entry, looked up): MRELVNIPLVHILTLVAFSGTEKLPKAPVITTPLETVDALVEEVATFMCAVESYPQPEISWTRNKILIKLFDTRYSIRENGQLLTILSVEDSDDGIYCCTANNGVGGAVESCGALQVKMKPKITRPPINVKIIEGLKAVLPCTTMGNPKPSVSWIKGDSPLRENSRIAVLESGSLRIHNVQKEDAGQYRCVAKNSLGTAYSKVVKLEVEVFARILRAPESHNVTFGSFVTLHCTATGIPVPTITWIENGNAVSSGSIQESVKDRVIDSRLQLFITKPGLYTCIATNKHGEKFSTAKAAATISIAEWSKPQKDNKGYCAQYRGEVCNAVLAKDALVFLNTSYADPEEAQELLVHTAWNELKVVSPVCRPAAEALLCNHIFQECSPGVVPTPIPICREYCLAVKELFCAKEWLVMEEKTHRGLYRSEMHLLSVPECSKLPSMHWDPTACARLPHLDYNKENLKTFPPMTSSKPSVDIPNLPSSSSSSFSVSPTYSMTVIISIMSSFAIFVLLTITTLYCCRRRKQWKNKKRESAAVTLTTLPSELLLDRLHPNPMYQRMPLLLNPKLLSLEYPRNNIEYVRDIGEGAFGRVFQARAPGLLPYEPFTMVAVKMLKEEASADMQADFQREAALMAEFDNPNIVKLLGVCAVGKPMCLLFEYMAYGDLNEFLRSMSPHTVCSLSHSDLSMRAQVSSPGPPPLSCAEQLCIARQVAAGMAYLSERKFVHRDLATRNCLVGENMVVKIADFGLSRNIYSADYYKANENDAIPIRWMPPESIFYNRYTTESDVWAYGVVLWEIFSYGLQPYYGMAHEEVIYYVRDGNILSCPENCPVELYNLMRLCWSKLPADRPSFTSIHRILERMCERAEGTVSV
// values below are reported residual activity
Field format: number, assumed %, no unit text.

Field: example entries. Status: answers known.
Indicate its recorded residual activity; the compound in question is `O=C(c1ccccc1)c1ccc(N2CCOCC2)cc1O`
101

Give me measured residual activity, please, for this compound: `O=C(O)c1ccc2c3c1cccc3c(=O)n1c3ccccc3nc21`
47.1

Item `FC(F)(F)c1ccc(/C=C/c2nc(COc3ccc(CCCCn4ccnn4)cc3)co2)cc1` : provide residual activity
104

Return the recorded residual activity value; entry: `CCOc1cc2ncnc(Nc3cccc(Br)c3)c2cc1OCC`
92.6

---
Look up and report measured residual activity for this entry: `O=C1NC(=O)c2c1c1c3ccccc3[nH]c1c1[nH]c3cc(Br)ccc3c21`
88.4

Provide one value: measured residual activity of `N#C/C(=C1/Nc2ccccc2S1)c1ccnc(NCCc2cccnc2)n1`
14.8

====

target: CAMKK1 (human) (UniProt Q8N5S9); assay: radiometric filter-binding kinase assay, Kinase HotSpot; conditions: compound 0.5 µM; ATP 10 µM
Sequence (Q8N5S9 whole entry, looked up): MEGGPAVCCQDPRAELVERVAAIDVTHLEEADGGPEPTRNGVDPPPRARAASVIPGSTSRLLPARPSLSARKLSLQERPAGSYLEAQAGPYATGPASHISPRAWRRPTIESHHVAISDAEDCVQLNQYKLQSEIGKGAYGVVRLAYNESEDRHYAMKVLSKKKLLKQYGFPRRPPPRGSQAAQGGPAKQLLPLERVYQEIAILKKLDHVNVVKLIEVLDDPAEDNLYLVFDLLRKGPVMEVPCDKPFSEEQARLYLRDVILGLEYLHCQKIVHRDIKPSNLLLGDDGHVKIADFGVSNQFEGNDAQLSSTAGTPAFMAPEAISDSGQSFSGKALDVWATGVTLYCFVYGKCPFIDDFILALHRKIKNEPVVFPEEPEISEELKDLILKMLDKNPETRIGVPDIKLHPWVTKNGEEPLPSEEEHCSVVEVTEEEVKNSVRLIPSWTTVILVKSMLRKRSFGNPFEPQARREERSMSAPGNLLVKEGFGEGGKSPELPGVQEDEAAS
parameter: residual activity (%)
Answer in %, number only, no unit symbol.

These recorded examples may help you get a feel for the data.
Given the compound `FC(F)(F)c1ccc(/C=C/c2nc(COc3ccc(CCCCn4ccnn4)cc3)co2)cc1` , write its reported residual activity.
96.7

# return recorded residual activity for entry `Cc1cc(Nc2nc(-c3ccccc3)nc3ccccc23)n[nH]1`
90.7

Identify measured residual activity corresponding to `Nc1ncnc2c1cnn2-c1ccccc1`
84.8

# next compound below
Fill in residual activity for record `CCCCc1c(-c2ccc(O)cc2)[nH]c2nccnc12`
89.7

====

residual activity: recorded values
molecular target: PLK3 (human) (UniProt Q9H4B4); assay: radiometric filter-binding kinase assay, Kinase HotSpot; details: compound 0.5 µM; ATP 10 µM
Sequence (Q9H4B4 whole entry, looked up): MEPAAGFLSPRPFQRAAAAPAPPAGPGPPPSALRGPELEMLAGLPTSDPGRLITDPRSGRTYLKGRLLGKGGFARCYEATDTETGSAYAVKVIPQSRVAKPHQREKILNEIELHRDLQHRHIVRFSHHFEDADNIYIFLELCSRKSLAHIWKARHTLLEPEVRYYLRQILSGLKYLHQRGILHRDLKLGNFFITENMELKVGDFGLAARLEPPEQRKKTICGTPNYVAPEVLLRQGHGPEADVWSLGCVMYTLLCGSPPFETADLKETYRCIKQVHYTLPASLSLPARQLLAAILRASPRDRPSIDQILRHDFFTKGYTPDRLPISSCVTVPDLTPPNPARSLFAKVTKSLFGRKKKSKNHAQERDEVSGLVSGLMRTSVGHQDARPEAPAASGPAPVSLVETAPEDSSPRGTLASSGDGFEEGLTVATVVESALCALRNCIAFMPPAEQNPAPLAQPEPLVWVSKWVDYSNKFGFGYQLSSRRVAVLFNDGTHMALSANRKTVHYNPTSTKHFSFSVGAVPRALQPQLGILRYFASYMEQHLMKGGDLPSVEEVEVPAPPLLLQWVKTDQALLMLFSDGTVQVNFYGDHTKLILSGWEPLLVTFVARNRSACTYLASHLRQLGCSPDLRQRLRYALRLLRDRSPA
Please state the figure in %; there is no need to write the unit.

Complete the entry with residual activity for `COc1cc2c(Nc3ccc(Br)cc3F)ncnc2cc1OCC1CCN(C)CC1`
95

Quick one: give measured residual activity for `COc1cc2ncnc(Nc3ccc(O)c(Br)c3)c2cc1OC`
95.2

# return recorded residual activity for entry `O=c1c2ccccc2[nH]c(=S)n1CCN1CCC(=C(c2ccc(F)cc2)c2ccc(F)cc2)CC1`
96.2

Next:
Consider the compound `O=C1NC(=O)c2cc(Nc3ccc(F)cc3)c(Nc3ccc(F)cc3)cc21` and give its recorded residual activity.
98

Read the entry `N#Cc1c(NC(=O)c2cccc3ccccc23)sc2c1CCCC2` and write its reported residual activity.
99.6

Please give the documented residual activity of `c1ccc(-c2cnc(Nc3ccc(OCCN4CCCC4)cc3)s2)cc1`
98

Fill in reported residual activity for this entry: `CCCCc1c(-c2ccc(O)cc2)[nH]c2nccnc12`
90.6

Read the entry `O=C1NC(=O)c2c1c1c3ccccc3[nH]c1c1[nH]c3cc(Br)ccc3c21` and write its reported residual activity.
93.3

====

target: HCK (human); assay: radiometric filter-binding kinase assay, Kinase HotSpot; details: compound 0.5 µM; ATP 10 µM
residual activity overview
Please give a number only; it is taken to be in %.

Worked cases, residual activity given:
Note residual activity for the molecule shown: `CN[C@@H]1C[C@H]2O[C@@](C)([C@@H]1OC)n1c3ccccc3c3c4c(c5c6ccccc6n2c5c31)C(=O)NC4`
3.26

Supply measured residual activity of `N#CCCc1ccc2c(c1)-c1[nH]c3ccc([N+](=O)[O-])cc3c1CC(=O)N2` in your reply.
63.8

Using known records, supply residual activity for `O=C1NC(=O)c2c1c1c3ccccc3[nH]c1c1[nH]c3cc(Br)ccc3c21`
92.4

Further cases:
Supply measured residual activity of `O=C(O)c1ccc2c3c1cccc3c(=O)n1c3ccccc3nc21` in your reply.
96.7

Look up residual activity of `N/C(=N\N=C/c1ccc(-c2cccc([N+](=O)[O-])c2)o1)N[N+](=O)[O-]` and report it.
114

Item `CCCCc1c(-c2ccc(O)cc2)[nH]c2nccnc12` : provide residual activity
91.1

Fill in reported residual activity for this entry: `N#Cc1c(NC(=O)c2cccc3ccccc23)sc2c1CCCC2`
96.5

====

Reported residual activity is given for each of the following compounds.
biological target: RPS6KA2 KD1 KD2 (human) (UniProt Q15349); assay: radiometric filter-binding kinase assay, Kinase HotSpot; conditions: compound 0.5 µM; ATP 10 µM
Sequence (Q15349 whole entry, looked up): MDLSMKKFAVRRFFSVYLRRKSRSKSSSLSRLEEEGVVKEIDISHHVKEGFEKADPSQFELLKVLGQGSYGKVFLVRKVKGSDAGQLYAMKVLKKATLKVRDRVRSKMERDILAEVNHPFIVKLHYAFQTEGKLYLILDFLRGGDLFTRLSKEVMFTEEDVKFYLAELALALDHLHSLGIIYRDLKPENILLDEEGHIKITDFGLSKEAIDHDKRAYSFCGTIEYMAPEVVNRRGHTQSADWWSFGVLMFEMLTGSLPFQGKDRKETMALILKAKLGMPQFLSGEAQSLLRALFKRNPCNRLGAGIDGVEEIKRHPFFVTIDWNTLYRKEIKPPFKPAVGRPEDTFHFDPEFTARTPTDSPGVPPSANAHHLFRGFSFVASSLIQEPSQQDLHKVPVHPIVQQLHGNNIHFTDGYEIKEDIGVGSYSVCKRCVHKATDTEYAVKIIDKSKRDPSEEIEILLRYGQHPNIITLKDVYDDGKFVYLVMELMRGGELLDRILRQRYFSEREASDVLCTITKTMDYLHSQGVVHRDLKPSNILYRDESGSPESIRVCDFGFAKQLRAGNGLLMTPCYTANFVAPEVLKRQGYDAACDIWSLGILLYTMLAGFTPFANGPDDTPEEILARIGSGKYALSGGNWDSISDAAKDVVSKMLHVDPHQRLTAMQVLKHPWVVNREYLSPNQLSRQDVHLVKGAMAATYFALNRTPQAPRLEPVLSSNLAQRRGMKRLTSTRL
# number only, unit % dropped from output

Report the value of residual activity obtained on RPS6KA2 KD1 KD2 (human) (UniProt Q15349) for `c1ccc(-c2cnc(Nc3ccc(OCCN4CCCC4)cc3)s2)cc1` .
85

====

target: TAOK2 (human) (UniProt Q9UL54); assay: radiometric filter-binding kinase assay, Kinase HotSpot; details: compound 0.5 µM; ATP 10 µM
# Lookup of reported residual activity keyed by entry
Write the number in % without appending the unit.

Identify residual activity associated with the compound `CCOc1cc2ncnc(Nc3cccc(Br)c3)c2cc1OCC`
101

Report measured residual activity; entry is `COc1cc2ncnc(Nc3ccc(O)c(Br)c3)c2cc1OC`
95.8

Give me measured residual activity, please, for this compound: `COc1cc2c(cc1OC)-c1[nH]nc(Nc3cccc(F)c3)c1C2`
97.1

Return residual activity for the following compound: `COc1cccc(-c2cc(=O)c3ccccc3o2)c1N`
96

Kindly indicate its recorded residual activity. Item: `N#CCCc1ccc2c(c1)-c1[nH]c3ccc([N+](=O)[O-])cc3c1CC(=O)N2`
86.4

Answer with the recorded residual activity of `O=S(=O)(NCCNC/C=C/c1ccc(Br)cc1)c1cccc2cnccc12` only.
90.7

***
Fill in residual activity for record `CCc1nc(-c2ccc(OC)cc2)[nH]c1-c1ccncc1`
98.2

Check the records and state residual activity for `N/C(=N\N=C/c1ccc(-c2cccc([N+](=O)[O-])c2)o1)N[N+](=O)[O-]`
95.3

Please report residual activity for the following compound: `O=C1NC(=O)c2c1c1c3ccccc3[nH]c1c1[nH]c3cc(Br)ccc3c21`
94.1

State its residual activity: `O=c1c2ccccc2[nH]c(=S)n1CCN1CCC(=C(c2ccc(F)cc2)c2ccc(F)cc2)CC1`
109

Query residual activity for `Cc1cc(Nc2nc(-c3ccccc3)nc3ccccc23)n[nH]1`
90.3

Identify measured residual activity corresponding to `COc1cc2c(N3CCN(C(=O)Nc4ccc(OC(C)C)cc4)CC3)ncnc2cc1OCCCN1CCCCC1`
102

Could you please provide reported residual activity for `FC(F)(F)c1ccc(/C=C/c2nc(COc3ccc(CCCCn4ccnn4)cc3)co2)cc1` ? Thanks!
105

Output measured residual activity for this item: `N#Cc1c(NC(=O)c2cccc3ccccc23)sc2c1CCCC2`
99.8

====

biological target: EGFR (human) (UniProt P00533); experiment: radiometric filter-binding kinase assay, Kinase HotSpot; conditions: compound 0.5 µM; ATP 10 µM
Sequence (P00533 whole entry, looked up): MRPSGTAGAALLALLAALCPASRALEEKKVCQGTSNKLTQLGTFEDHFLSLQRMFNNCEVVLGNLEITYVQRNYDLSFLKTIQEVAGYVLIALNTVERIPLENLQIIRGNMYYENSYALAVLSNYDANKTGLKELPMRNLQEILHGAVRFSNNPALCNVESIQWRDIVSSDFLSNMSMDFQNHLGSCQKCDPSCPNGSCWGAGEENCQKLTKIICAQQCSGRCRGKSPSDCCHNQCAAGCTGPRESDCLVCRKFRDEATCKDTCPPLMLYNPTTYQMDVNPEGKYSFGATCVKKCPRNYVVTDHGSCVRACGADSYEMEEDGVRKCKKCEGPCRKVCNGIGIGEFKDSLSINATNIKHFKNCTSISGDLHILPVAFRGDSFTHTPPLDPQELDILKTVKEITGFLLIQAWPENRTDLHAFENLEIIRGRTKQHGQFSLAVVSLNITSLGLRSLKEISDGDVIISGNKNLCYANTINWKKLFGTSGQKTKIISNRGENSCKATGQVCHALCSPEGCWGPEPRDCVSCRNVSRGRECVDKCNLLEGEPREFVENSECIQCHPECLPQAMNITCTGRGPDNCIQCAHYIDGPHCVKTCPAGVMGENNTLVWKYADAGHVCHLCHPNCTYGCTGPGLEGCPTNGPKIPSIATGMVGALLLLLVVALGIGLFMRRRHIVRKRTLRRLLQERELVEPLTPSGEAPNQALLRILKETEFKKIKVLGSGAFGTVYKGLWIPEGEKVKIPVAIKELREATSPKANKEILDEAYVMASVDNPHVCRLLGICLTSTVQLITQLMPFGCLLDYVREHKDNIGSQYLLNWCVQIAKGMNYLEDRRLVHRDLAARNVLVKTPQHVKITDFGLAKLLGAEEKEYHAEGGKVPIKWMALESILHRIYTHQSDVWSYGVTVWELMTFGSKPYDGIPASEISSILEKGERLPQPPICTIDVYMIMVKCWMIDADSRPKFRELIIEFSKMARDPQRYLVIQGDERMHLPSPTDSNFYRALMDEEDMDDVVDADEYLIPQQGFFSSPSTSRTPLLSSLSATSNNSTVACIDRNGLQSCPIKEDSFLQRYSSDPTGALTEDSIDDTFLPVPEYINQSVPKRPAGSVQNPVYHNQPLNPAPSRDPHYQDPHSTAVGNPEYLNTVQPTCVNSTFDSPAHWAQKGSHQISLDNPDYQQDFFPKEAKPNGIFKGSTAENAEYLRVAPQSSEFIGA
Each entry below carries its recorded residual activity.

These recorded examples may help you get a feel for the data.
For the compound `N/C(=N\N=C/c1ccc(-c2cccc([N+](=O)[O-])c2)o1)N[N+](=O)[O-]` , give its measured residual activity value.
100%

Supply residual activity value. Item: `COc1cccc(-c2cc(=O)c3ccccc3o2)c1N`
81.2%

# return recorded residual activity for entry `Cc1cc(Nc2nc(-c3ccccc3)nc3ccccc23)n[nH]1`
97.4%

***
Give the reported residual activity for this compound. `O=c1c(-c2ccc(F)cc2)c(-c2ccncc2)[nH]n1-c1ccc(Cl)cc1`
57.7%

Return residual activity for the following compound: `Cn1cc(/C=C2\C(=O)Nc3ccc(S(N)(=O)=O)cc32)c2ccccc21`
77.5%

Consider the compound `O=c1c2ccccc2[nH]c(=S)n1CCN1CCC(=C(c2ccc(F)cc2)c2ccc(F)cc2)CC1` and give its recorded residual activity.
101%
